Test system: Plasma
Assay: Metabolic stability in mouse plasma assessed as compound remaining at 1 uM after 24 hrs by LC-MS/MS analysis
Type: ADME, cell-free
Settings: 24 h, 1 µM
Metric Name: Stability (%)

CCn1c(CCCc2ccc(-c3ccc(NS(=O)(=O)c4ccccc4)nc3)cc2)nn(Cc2ccc(C(C)(C)C)cc2)c1=O :: 128.7
CCn1c(CCCc2ccc(-c3ccc(NS(=O)(=O)Cc4ccccc4)cc3)cc2)nn(Cc2ccc(C(C)(C)C)cc2)c1=O :: 133.9
CCn1c(CCCc2ccc(-c3cnc(NS(=O)(=O)c4ccccc4)cn3)cc2)nn(Cc2ccc(C(C)(C)C)cc2)c1=O :: 131.2
CCn1c(CCCc2ccc(-c3ccc(NS(=O)(=O)c4ccccc4)cn3)cc2)nn(Cc2ccc(C(C)(C)C)cc2)c1=O :: 140.6
CCn1c(CCCc2ccc(-c3ccc(NS(=O)(=O)c4ccccc4)cc3)cc2)nn(Cc2ccc(C(C)(C)C)cc2)c1=O :: 124.7
CCn1c(CCCc2ccc(-c3cccc(NS(=O)(=O)c4ccccc4)c3)cc2)nn(Cc2ccc(C(C)(C)C)cc2)c1=O :: 136
